system: T-47D cells; test: Inhibition of [3H] estrone-3-sulfate uptake by T-47D cells; assay type: cell-based, human; conditions: inhibitor 50 μM; mean±S.E.M. (n=4)
readout-type: [3H] estrone-3-sulfate uptake, Control (%)

Query block: Annotate the compound C[C@]12CC[C@@H]3c4ccc(O)cc4CC[C@H]3[C@@H]1CC[C@@H]2O[C@@H]1O[C@H](C(=O)O)[C@@H](O)[C@H](O)[C@H]1O [Estradiol-17β-glucuronide] with its measured [3H] estrone-3-sulfate uptake, Control (%).
Result block: 90.4 ± 11.5%

----------
test system: T-47D cells; assay: Inhibition of [3H] estrone-3-sulfate uptake by T-47D cells; format: cell-based, human; settings: inhibitor 50 μM; mean±S.E.M. (n=4)
readout-type: [3H] estrone-3-sulfate uptake, Control (%)

Consider the reported [3H] estrone-3-sulfate uptake, Control (%) for these compounds:
compound	reported-measurement
C[C@]12CC[C@@H]3c4ccc(O)cc4CC[C@H]3[C@@H]1CC[C@@H]2O	45.7 ± 5.3 * %
C[C@]12CC[C@@H]3c4ccc(O)cc4CC[C@H]3[C@@H]1CCC2=O	64.8 ± 7.5 * %
C[C@]12CC[C@@H]3c4ccc(OS(=O)(=O)O)cc4CC[C@H]3[C@@H]1CCC2=O [Estrone-3-sulfate]	6.6 ± 0.9 * %

// next entry
Query block: Annotate the compound C[C@]12CC[C@H](O)CC1=CC[C@@H]1[C@@H]2CC[C@]2(C)C(=O)CC[C@@H]12 [Dehydroepiandrosterone] with its measured [3H] estrone-3-sulfate uptake, Control (%).
Result block: 44.8 ± 8.0 * %
